Target: PPAR beta/delta (Homo sapiens, UniProt Q03181)
Sequence (Q03181 whole entry): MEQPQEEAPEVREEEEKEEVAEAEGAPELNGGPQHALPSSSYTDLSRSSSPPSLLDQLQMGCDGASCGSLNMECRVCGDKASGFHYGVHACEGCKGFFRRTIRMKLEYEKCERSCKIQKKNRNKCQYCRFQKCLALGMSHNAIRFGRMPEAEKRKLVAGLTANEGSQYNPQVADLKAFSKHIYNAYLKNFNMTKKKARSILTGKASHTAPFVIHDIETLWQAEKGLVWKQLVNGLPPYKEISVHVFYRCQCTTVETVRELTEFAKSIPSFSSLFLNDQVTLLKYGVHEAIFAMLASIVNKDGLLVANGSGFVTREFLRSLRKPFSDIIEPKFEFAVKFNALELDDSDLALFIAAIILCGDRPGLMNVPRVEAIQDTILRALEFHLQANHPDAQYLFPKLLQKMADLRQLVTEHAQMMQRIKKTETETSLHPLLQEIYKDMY
Assay: Target selectivity counterscreen, PPAR β/δ reporter assay
Conditions: receptor agonist at ~EC80
measurement.type: IC50 (nM)

CCn1c(CCCc2ccc(-c3ccc(NS(=O)(=O)c4ccccc4)cn3)cc2)nn(Cc2ccc(C(C)(C)C)cc2)c1=O; 2600

---

// reported IC50 per item
Target: Human PPARα (Homo sapiens)
Construct: host or cells: proprietary non-human mammalian cells
Assay: Human PPARα Reporter Assay (luciferase)
Type: cell-based
Details: human PPARα reporter cells, overnight incubation, antagonism; read-out: Luciferase IC50
measurement.type: IC50 (nM)

CCn1c(CCCc2ccc(-c3cc(C(F)(F)F)cc(CC(=O)O)n3)cc2)nn(Cc2ccc(C(C)(C)C)cc2)c1=O [Example 48]; 426
CCn1c(CCCc2ccc(-c3ccc4[nH]cc(C(=O)O)c4c3)cc2)nn(Cc2ccc(C(C)(C)C)cc2)c1=O [Example 70]; 270
CCn1c(CCCc2ccc(-c3ccc(OC)c(CC(=O)O)c3)c(C(F)(F)F)c2)nn(Cc2ccc(C(C)(C)C)cc2)c1=O [Example 150]; 126
CCn1c(CCCc2ccc(-c3cccc(CC(=O)O)c3)cc2)nn(Cc2ccc(C(C)(C)C)c(Br)c2)c1=O [Example 67]; 88
CCn1c(CCCc2ccc(-c3cnc(C4(O)COC4)s3)cc2)nn(Cc2ccc(C(C)(C)C)cc2)c1=O [Example 204]; 50
CCCCn1c(CCCc2ccc(-c3ccc(OCC)c(CC(=O)O)c3)cc2)nn(Cc2ccc(C(C)(C)C)cc2)c1=O [Example 69]; 24
CCCOc1ccc(-c2ccc(CCCc3nn(Cc4ccc(C(C)(C)C)cc4)c(=O)n3CC)cc2)cc1CC(=O)O [Example 94]; 16

---

Target: Human PPARα (Homo sapiens, UniProt Q07869)
Construct: host or cells: proprietary non-human mammalian cells
Sequence (Q07869 1-468): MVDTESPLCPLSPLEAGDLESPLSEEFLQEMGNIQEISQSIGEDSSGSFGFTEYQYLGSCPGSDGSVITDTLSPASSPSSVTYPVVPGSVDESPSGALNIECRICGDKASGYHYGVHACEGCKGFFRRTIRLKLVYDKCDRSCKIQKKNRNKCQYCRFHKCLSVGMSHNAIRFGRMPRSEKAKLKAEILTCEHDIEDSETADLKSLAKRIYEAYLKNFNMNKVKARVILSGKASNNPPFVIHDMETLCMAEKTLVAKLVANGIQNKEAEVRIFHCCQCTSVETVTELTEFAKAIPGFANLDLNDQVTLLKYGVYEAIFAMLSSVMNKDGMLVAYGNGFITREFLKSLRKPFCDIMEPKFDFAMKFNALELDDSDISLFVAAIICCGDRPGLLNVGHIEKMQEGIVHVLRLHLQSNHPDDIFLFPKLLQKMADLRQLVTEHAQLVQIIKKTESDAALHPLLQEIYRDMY
Test: Human PPARα Reporter Assay (luciferase)
Format: cell-based
Conditions: human PPARα reporter cells, overnight incubation, antagonism; read-out: Luciferase IC50
pIC50: −log10 of the molar value.
measurement.type: pIC50

CCn1c(CCCc2ccc(-c3ccc(NS(=O)(=O)c4ccc(Oc5ccc(C(F)(F)F)cn5)cc4)cn3)cc2)nn(Cc2ccc(C(C)(C)C)cc2)c1=O [Example 77]; 6.15
CCn1c(CCCc2ccc(-c3ccc(OC)c(CC(=O)O)c3)c(OC)c2)nn(Cc2ccc(C(C)(C)C)cc2)c1=O [Example 159]; 6.39
CCn1c(CCCc2ccc(-c3nc(NC(=O)OC(C)(C)C)co3)cc2)nn(Cc2ccc(C(C)(C)C)cc2)c1=O [Example 25]; 6.74
